Biological target: acetylcholine receptor
Test: SPR, receptor immobilized on CM5 chip, peptide 10 uM
PROPERTY MEASURED: log10(Binding affinity (RU)) (log10 of the value in RU)
Scale type: logarithmic (base 10). Underlying Binding affinity (RU) unit: RU.

Examples from the recorded data:
RVIRRK [6mer-2-434] ... 2.19
KRMSHR [6mer-1-870] ... 1.40
KKAMHR [6mer-1-925] ... 1.62
RGRCKK [6mer-2-451] ... 2.17
RRVICK [6mer-1-276] ... 2.11

Exam item: Form field: reported log10(Binding affinity (RU)) of RKLYSR [6mer-1-304]
Marked response: 2.08

Exam item: Again, but for RKYWAR [6mer-1-876]
Marked response: 1.28

Exam item: Again, but for KVICRK [6mer-2-421]
Marked response: 2.09
